All values here come from patent US5157020A.

system: senescent cell IgG; assay: IgG binding and inhibition assay (competitive inhibition of senescent cell IgG binding to stored erythrocytes, 125I-Protein A); parameters: species or system human; settings: Table 1; peptides 300 ug, senescent cell IgG 3 ug, 90 mins at room temperature; mean ± 1 SD of quadruplicate samples
Assay readout: INHIBITION (%) of senescent cell IgG binding

# Residue string, Recorded value
data = [
    ("SKLIKIFQDHPLQKTYN [ANION 1]", 88),
    ("LRKFKNSSYFPGKLR [ANION 2]", 30),
    ("AGVANQLLDRFIFEDQ [CYTO, reference compound]", 0),
    ("LFKPPKYHPDVPYVKR [COOH]", 99),
]
